Assay: Toxicity liver stage against HepG2, at 10uM
Assay type: cell-based
Design: test concentration 10 uM, cell line HepG2-A16-CD81EGFP
Settings: human, HepG2-A16-CD81EGFP cells; read-out: INHIBITION
Give measured cytotoxicity at 10 µM for each item. Keep answers brief.
Answers are plain numbers, in %.

# count of solved cases: 2
> print(dat)
                                   molecule  measurement
1  COC(=O)CCNC(=O)c1nnn(-c2ccc(C)cc2)c1C1CC1       -0.121
2       CCOCc1nc2c(c(N(C)Cc3ccsc3)n1)CCNCC2         11.1

Each molecule below has a recorded value; state its cytotoxicity at 10 µM.
1. CC(NC(=O)NCc1cccs1)c1ccc2c(c1)CCC(=O)N2 (configuration not stated)
2. O=C(Cc1cccnc1)N1CCC(c2nnc(-c3ccccn3)o2)CC1
3. CC(C)NC(=O)CCN1CCCC1c1cccc2c1OCCO2 (configuration not stated)
4. CC(C)N(Cc1ccc(Cl)c(Cl)c1)C(=O)Cn1cncn1
5. COc1ccc2c(c1)CC(NCc1cccc(CO)c1)CC2 (configuration not stated)
6. Cc1cnn(-c2ccc(C(=O)N3CCCC(n4ccnc4C)C3)cc2)c1 (configuration not stated)
7. CCN(CC)CC(=O)NCCc1csc(N2CCCC2)n1

Result string:
1: 5.41; 2: 0.91; 3: 0.354; 4: 4.19; 5: -51.8; 6: -9.99; 7: 8.55

Each molecule below has a recorded value; state its cytotoxicity at 10 µM.
1. CC(=O)NC1CCN(C(=O)Nc2ccc(SC(F)F)cc2)CC1
2. CO[C@@H]1CC[C@H]2[C@H]1OCCN2Cc1ccc(F)cc1

Result string:
1: -6.91; 2: 1.82

====

Assay: Toxicity liver stage against HepG2, at 10uM
Assay type: cell-based
Set-up: test concentration 10 uM, cell line HepG2-A16-CD81EGFP
Settings: human, HepG2-A16-CD81EGFP cells; read-out: INHIBITION
Give measured cytotoxicity at 10 µM for each item. Keep answers brief.
Give bare numbers, in %.

> print(dat)
                                   molecule         property.label  readout.unit  measurement
1                 Cc1ncsc1C(=O)NCCNc1cnccn1  cytotoxicity at 10 µM             %      0.00742
2  Cc1ccccc1N1CCN(C(=O)c2cnc(C3CC3)nc2)C(C)C1 (stereo unspecified)  cytotoxicity at 10 µM             %         2.09
3  Cc1ccc(C(=O)NCCCN(C)S(C)(=O)=O)cc1-n1cccc1  cytotoxicity at 10 µM             %        -8.71
4  c1cc(C2CCCN2CC2CCCCC2)n[nH]1 (stereo unspecified)  cytotoxicity at 10 µM             %        -1.83

Each molecule below has a recorded value; state its cytotoxicity at 10 µM.
1. CN(Cc1cnccn1)c1cncc(Br)c1
2. COc1ccc(OC)c(-n2cnnc2CCN)c1
3. CCN(Cc1ccoc1)C(=O)c1ccc(C)c(S(N)(=O)=O)c1
4. Cn1cc(C2CCCN2C(=O)c2cnc(-c3ccco3)s2)cn1 (stereo unspecified)
5. O=C1CC(c2ccncc2)C2(CCN(C(=O)c3ccc[nH]3)CC2)N1 (stereo unspecified)
6. Cc1cc(NC(=O)N(CCO)Cc2ccsc2)no1
7. CSCCC(=O)N1CCN(CC(O)C(C)(C)C)CC1 (stereo unspecified)
8. COc1cccc(CN2CCOC(c3cnccn3)C2)c1F (stereo unspecified)

Result string:
1: -8.46; 2: 9.83; 3: -4.63; 4: 3.88; 5: 3.78; 6: -5.57; 7: -2.06; 8: 8.63
